Measured values drawn from ChEMBL document CHEMBL1240300 for this set.

Assay: Binding affinity to yeast Ure2p
Design: species or system Saccharomyces cerevisiae
Metric Name: pKd
The value called pKd is obtained by taking minus log10 of the concentration in mol/L.

Query string: State its pKd: NCc1ccc([C@H]2O[C@@H](CSc3nc(-c4ccccc4)c(-c4ccccc4)o3)C[C@@H](c3ccc(CO)cc3)O2)cc1
Result string: 5.12

Query string: State its pKd: NCc1ccc([C@H]2O[C@@H](CSc3nc(-c4ccccc4)c(-c4ccccc4)o3)[C@H](c3ccccc3)[C@@H](c3ccc(CO)cc3)O2)cc1
Result string: 4.74

###

Biological target: Glycogen synthase kinase-3 beta (Mus musculus, UniProt Q9WV60)
Sequence (Q9WV60 whole entry): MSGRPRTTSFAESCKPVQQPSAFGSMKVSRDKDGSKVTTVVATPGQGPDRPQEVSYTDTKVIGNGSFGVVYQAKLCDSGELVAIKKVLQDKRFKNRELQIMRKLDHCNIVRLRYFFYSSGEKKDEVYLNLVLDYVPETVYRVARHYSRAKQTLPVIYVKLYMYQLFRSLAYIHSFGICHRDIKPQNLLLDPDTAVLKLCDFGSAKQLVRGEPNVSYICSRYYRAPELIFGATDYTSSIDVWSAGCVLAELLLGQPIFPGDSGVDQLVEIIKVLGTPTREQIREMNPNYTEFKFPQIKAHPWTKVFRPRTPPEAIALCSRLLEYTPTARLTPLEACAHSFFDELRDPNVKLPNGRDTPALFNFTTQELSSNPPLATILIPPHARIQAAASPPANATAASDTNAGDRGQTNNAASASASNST
Assay: Inhibition of GSK-3 beta in mouse D3 cells assessed as induction of neuron specific marker neurofilament-M by immunofluorescence method
Type: cell-based
Metric Name: pEC50
The value called pEC50 is obtained by taking minus log10 of the concentration in mol/L.

Query string: Write down measured pEC50 (Glycogen synthase kinase-3 beta (Mus musculus, UniProt Q9WV60)) for this compound. Nc1cccc(-c2cc3c(Oc4cccc(O)c4)ncnc3[nH]2)c1
Result string: 6.00

###

Molecular target: UniProt Q9WV60
Assay: Inhibition of GSK-3 beta in mouse D3 cells assessed as induction of neuron specific marker beta3-tubulin by immunofluorescence method
Type: cell-based
Metric Name: pEC50
The value called pEC50 is obtained by taking minus log10 of the concentration in mol/L.

Query string: State its pEC50: Nc1cccc(-c2cc3c(Oc4cccc(O)c4)ncnc3[nH]2)c1
Result string: 6.00

###

Assay: Induction of cardiomyogenesis in mouse D3 cells assessed as induction of cadiomyocyte specific marker myosin heavy chain by immunofluorescence method
Type: functional, cell-based
Metric Name: EC50 (µM)
The answer is to be given in µM; state only the numeric part.

Query string: State its EC50: COc1ccc(Nc2nccc(NCCO)n2)cc1
Result string: 0.1

###

Molecular target: Glycogen synthase kinase-3 beta (Mus musculus, UniProt Q9WV60)
Assay: Inhibition of GSK-3 beta in mouse D3 cells
Metric Name: Kd (nM)
The answer is to be given in nM; state only the numeric part.

Query string: State its Kd: Nc1cccc(-c2cc3c(Oc4cccc(O)c4)ncnc3[nH]2)c1
Result string: 126

###

Target: Glycogen synthase kinase-3 beta (Mus musculus, UniProt Q9WV60)
Experiment: Binding affinity to GSK-3 beta in mouse D3 cells
Metric Name: pIC50
The value called pIC50 is obtained by taking minus log10 of the concentration in mol/L.

Query string: State its pIC50: Nc1cccc(-c2cc3c(Oc4cccc(O)c4)ncnc3[nH]2)c1
Result string: 7.52
